The measurements presented in this section are drawn from patent US12152038B2.

IC50 for assorted compounds
- System Tested: human Arginine Vasopressin Receptor 1a (AVPR1a) (Homo sapiens)
- Sequence (P37288 whole entry): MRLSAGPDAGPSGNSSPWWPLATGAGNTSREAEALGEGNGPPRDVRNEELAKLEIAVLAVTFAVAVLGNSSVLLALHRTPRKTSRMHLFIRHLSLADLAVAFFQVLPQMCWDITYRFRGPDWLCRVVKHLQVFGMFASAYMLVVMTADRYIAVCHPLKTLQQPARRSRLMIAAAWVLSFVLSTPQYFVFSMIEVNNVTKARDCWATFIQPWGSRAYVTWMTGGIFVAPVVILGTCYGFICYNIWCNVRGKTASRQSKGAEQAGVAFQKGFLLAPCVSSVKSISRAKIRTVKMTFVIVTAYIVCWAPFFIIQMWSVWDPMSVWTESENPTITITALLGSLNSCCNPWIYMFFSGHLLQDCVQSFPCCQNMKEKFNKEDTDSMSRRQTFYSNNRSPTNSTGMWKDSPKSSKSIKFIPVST
- Method Summary: Vasopressin V1a receptor antagonist assay (FLIPR calcium, CHO-AVPR1a cells)

Use the examples below as a reference point.
O=C(N1CC2(C1)CN(c1ccc(C(F)(F)F)cn1)C2)N1CCOc2cc(Cl)ccc21	100 to 500 nM
O=C(N1CC2(C1)CN(c1ccc(F)cn1)C2)N1CCOc2ccncc21	≥ 1000 nM

I have this compound here, "Cc1cc(N2CC3(CN(C(=O)N4CCOc5cc(Cl)ccc54)C3)C2)ncc1C#N" , and I need its recorded IC50.
< 100 nM

Next: "COc1ccnc(N2CC3(CN(C(=O)N4CCOc5cc(Cl)ccc54)C3)C2)n1"
< 100 nM
